MIC values, listed per item
- Test system: Aspergillus fumigatus
- measurement.protocol: Antifungal activity against Aspergillus fumigatus after 72 hrs by broth microdilution method
- Format: functional
quantity: MIC (µg/mL)

compound=O=C1C(Sc2cccc3ccccc23)=C(N(c2ccccc2)c2ccccc2)C(=O)c2ccccc21 study_target="Aspergillus fumigatus" limit_sign== recorded_number=50
compound=O=C1C(Cl)=C(Nc2ccccc2)C(=O)c2ccccc21 study_target="Aspergillus fumigatus" limit_sign=> recorded_number=50
compound=COc1cccc(SC2=C(N)C(=O)c3ccccc3C2=O)c1 study_target="Aspergillus fumigatus" limit_sign== recorded_number=6.25
compound=Nc1c2ccccc2nc2c(=O)c3ccccc3c(=O)c=2n1-c1ccccc1 study_target="Aspergillus fumigatus" limit_sign=> recorded_number=50
compound=N#Cc1ccccc1NC1=C(Br)C(=O)c2ccccc2C1=O study_target="Aspergillus fumigatus" limit_sign=> recorded_number=50
compound=N#Cc1ccccc1NC1=C(Nc2ccccc2C#N)C(=O)c2ccccc2C1=O study_target="Aspergillus fumigatus" limit_sign=> recorded_number=50
compound="Clc1ccc(COC(Cn2ccnc2)c2ccc(Cl)cc2Cl)c(Cl)c1 (stereo unspecified)" study_target="Aspergillus fumigatus" limit_sign== recorded_number=12.5
compound=NC1=C(Sc2cccc3ccccc23)C(=O)c2ccccc2C1=O study_target="Aspergillus fumigatus" limit_sign== recorded_number=25
compound=N#Cc1ccccc1NC1=C(Cl)C(=O)c2ccccc2C1=O study_target="Aspergillus fumigatus" limit_sign=> recorded_number=50
compound=NC1=C(Sc2ccccc2)C(=O)c2ccccc2C1=O study_target="Aspergillus fumigatus" limit_sign== recorded_number=6.25
compound=O=C1C(Cl)=C(N(c2ccccc2)c2ccccc2)C(=O)c2ccccc21 study_target="Aspergillus fumigatus" limit_sign== recorded_number=50

----------
MIC values by entry
- System: Candida albicans
- measurement.protocol: Antifungal activity against Candida albicans after 48 hrs by broth microdilution method
- Assay type: functional
quantity: MIC (µg/mL)

smiles_code=Cn1c(N)c2ccccc2nc2c(=O)c3ccccc3c(=O)c1=2 limit_sign=> recorded_number=50
smiles_code=N#Cc1ccccc1NC1=C(Cl)C(=O)c2ccccc2C1=O limit_sign== recorded_number=50
smiles_code=O=C1C(Cl)=C(N(c2ccccc2)c2ccccc2)C(=O)c2ccccc21 limit_sign== recorded_number=12.5
smiles_code=N#Cc1ccccc1NC1=C(Br)C(=O)c2ccccc2C1=O limit_sign== recorded_number=25
smiles_code=O=C1C(Sc2cccc3ccccc23)=C(N(c2ccccc2)c2ccccc2)C(=O)c2ccccc21 limit_sign== recorded_number=25
smiles_code=O=C1C(Nc2ccccc2)=C(Sc2cccc3ccccc23)C(=O)c2ccccc21 limit_sign== recorded_number=50

----------
- Test system: Escherichia coli
- measurement.protocol: Antibacterial activity against Escherichia coli after 24 hrs by broth microdilution method
- Type: functional
Lab note: anything with MIC below 10 µg/mL is marked class 1; values at 10 µg/mL or higher are marked class 0.

smiles_code=COc1ccc2[nH]c3c(=O)c4ccccc4c(=O)c=3sc2c1 classification="class 0"
smiles_code=COc1cccc(SC2=C(N)C(=O)c3ccccc3C2=O)c1 classification="class 0"
smiles_code=O=C1C(Nc2ccccc2)=C(Sc2ccccc2)C(=O)c2ccccc21 classification="class 0"
smiles_code=COc1cccc(SC2=C(Cl)C(=O)c3ccccc3C2=O)c1 classification="class 0"
smiles_code=NC[C@H]1O[C@H](O[C@H]2[C@H](O)[C@@H](O[C@H]3O[C@H](CO)[C@@H](O)[C@H](N)[C@H]3O)[C@H](N)C[C@@H]2N)[C@H](N)C[C@@H]1O classification="class 1"
smiles_code=NC1=C(Sc2ccccc2)C(=O)c2ccccc2C1=O classification="class 0"
smiles_code=O=C1C(Sc2ccccc2)=C(N(c2ccccc2)c2ccccc2)C(=O)c2ccccc21 classification="class 0"
smiles_code=O=C1C(Cl)=C(Sc2cccc3ccccc23)C(=O)c2ccccc21 classification="class 0"
smiles_code=NC1=C(Sc2cccc3ccccc23)C(=O)c2ccccc2C1=O classification="class 0"
smiles_code=COc1cccc(SC2=C(N(c3ccccc3)c3ccccc3)C(=O)c3ccccc3C2=O)c1 classification="class 0"
smiles_code=O=C1C(Cl)=C(NCCN2C(=O)c3ccccc3C2=O)C(=O)c2ccccc21 classification="class 1"
smiles_code=O=C1C(Nc2ccc(O)cc2)=C(Sc2ccccc2)C(=O)c2ccccc21 classification="class 0"
smiles_code=O=C1C(Cl)=C(Sc2ccccc2)C(=O)c2ccccc21 classification="class 0"
smiles_code=O=c1c2[nH]c3ccccc3sc=2c(=O)c2ccccc12 classification="class 0"
smiles_code=O=C1C(Cl)=C(Nc2ccccc2)C(=O)c2ccccc21 classification="class 0"
smiles_code=O=C1C(Cl)=C(N(c2ccccc2)c2ccccc2)C(=O)c2ccccc21 classification="class 0"
smiles_code=NCC[C@H](O)C(=O)N[C@@H]1C[C@H](N)[C@@H](O[C@H]2O[C@H](CN)[C@@H](O)[C@H](O)[C@H]2O)[C@H](O)[C@H]1O[C@H]1O[C@H](CO)[C@@H](O)[C@H](N)[C@H]1O classification="class 1"
smiles_code=Cn1c(N)c2ccccc2nc2c(=O)c3ccccc3c(=O)c1=2 classification="class 0"
smiles_code=O=C1C(Cl)=C(Nc2ccc(O)cc2)C(=O)c2ccccc21 classification="class 0"
smiles_code=NC[C@H]1O[C@H](O[C@H]2[C@H](O)[C@@H](O[C@H]3O[C@H](CO)[C@@H](O)[C@H](N)[C@H]3O)[C@H](N)C[C@@H]2N)[C@H](O)[C@@H](O)[C@@H]1O classification="class 0"

----------
- System: Candida albicans
- measurement.protocol: Antifungal activity against Candida albicans after 48 hrs by broth microdilution method
- Format: functional
In this section, each of the molecules is paired with its reported MIC.
quantity: MIC (µg/mL)

molecule=NC1=C(Sc2cccc3ccccc23)C(=O)c2ccccc2C1=O quantity=MIC limit_sign== recorded_number=25
molecule="C[C@@H]1[C@H](O)[C@@H](C)/C=C/C=C/C=C/C=C/C=C/C=C/C=C/[C@H](O[C@@H]2O[C@H](C)[C@@H](O)[C@H](N)[C@@H]2O)C[C@@H]2O[C@](O)(C[C@@H](O)C[C@@H](O)[C@H](O)CC[C@@H](O)C[C@@H](O)CC(=O)O[C@H]1C)C[C@H](O)[C@H]2C(=O)O [AMPHOTERICIN B]" quantity=MIC limit_sign== recorded_number=0.39
molecule=COc1cccc(SC2=C(N)C(=O)c3ccccc3C2=O)c1 quantity=MIC limit_sign== recorded_number=12.5
molecule=N#Cc1ccccc1NC1=C(Nc2ccccc2C#N)C(=O)c2ccccc2C1=O quantity=MIC limit_sign=> recorded_number=50
molecule="OC(Cn1cncn1)(Cn1cncn1)c1ccc(F)cc1F [FLUCONAZOLE]" quantity=MIC limit_sign== recorded_number=1
molecule=O=C1C(Cl)=C(Nc2ccc(O)cc2)C(=O)c2ccccc21 quantity=MIC limit_sign== recorded_number=1.56
molecule="Clc1ccc(COC(Cn2ccnc2)c2ccc(Cl)cc2Cl)c(Cl)c1 (stereo not given) [MICONAZOLE]" quantity=MIC limit_sign== recorded_number=25
molecule=Nc1c2ccccc2nc2c(=O)c3ccccc3c(=O)c=2n1-c1ccccc1 quantity=MIC limit_sign== recorded_number=25
molecule=O=C1C(Cl)=C(Nc2ccccc2)C(=O)c2ccccc21 quantity=MIC limit_sign=> recorded_number=50
molecule=NC1=C(Sc2ccccc2)C(=O)c2ccccc2C1=O quantity=MIC limit_sign== recorded_number=12.5

----------
- Test system: Klebsiella pneumoniae
- measurement.protocol: Antibacterial activity against Klebsiella pneumoniae ATCC 27736 after 24 hrs by broth microdilution method
- Type: functional
- condition.details: ATCC 27736, 24 h
quantity: MIC (µg/mL)

smiles_code=O=C1C(Nc2ccc(O)cc2)=C(Sc2ccccc2)C(=O)c2ccccc21 limit_sign=> recorded_number=50
smiles_code=NC[C@H]1O[C@H](O[C@H]2[C@H](O)[C@@H](O[C@H]3O[C@H](CO)[C@@H](O)[C@H](N)[C@H]3O)[C@H](N)C[C@@H]2N)[C@H](N)C[C@@H]1O limit_sign== recorded_number=1
smiles_code=O=C1C(Nc2ccccc2)=C(Sc2ccccc2)C(=O)c2ccccc21 limit_sign== recorded_number=25
smiles_code=COc1cccc(SC2=C(Cl)C(=O)c3ccccc3C2=O)c1 limit_sign=> recorded_number=50
smiles_code=O=c1c2[nH]c3ccccc3sc=2c(=O)c2ccccc12 limit_sign=> recorded_number=50
smiles_code=NC1=C(Sc2cccc3ccccc23)C(=O)c2ccccc2C1=O limit_sign== recorded_number=12.5
smiles_code=COc1ccc2[nH]c3c(=O)c4ccccc4c(=O)c=3sc2c1 limit_sign=> recorded_number=50
smiles_code=O=C1C(Sc2ccccc2)=C(N(c2ccccc2)c2ccccc2)C(=O)c2ccccc21 limit_sign== recorded_number=50
smiles_code=O=C1C(Cl)=C(Nc2ccccc2)C(=O)c2ccccc21 limit_sign=> recorded_number=50
smiles_code=Cn1c(N)c2ccccc2nc2c(=O)c3ccccc3c(=O)c1=2 limit_sign== recorded_number=50
smiles_code=NC[C@H]1O[C@H](O[C@H]2[C@H](O)[C@@H](O[C@H]3O[C@H](CO)[C@@H](O)[C@H](N)[C@H]3O)[C@H](N)C[C@@H]2N)[C@H](O)[C@@H](O)[C@@H]1O limit_sign== recorded_number=32
smiles_code=O=C1C(Cl)=C(Nc2ccc(O)cc2)C(=O)c2ccccc21 limit_sign== recorded_number=6.25
smiles_code=O=C1C(Cl)=C(N(c2ccccc2)c2ccccc2)C(=O)c2ccccc21 limit_sign== recorded_number=25
smiles_code=NC1=C(Sc2ccccc2)C(=O)c2ccccc2C1=O limit_sign== recorded_number=1.56
smiles_code=COc1cccc(SC2=C(N)C(=O)c3ccccc3C2=O)c1 limit_sign== recorded_number=12.5
smiles_code=O=C1C(Cl)=C(Sc2ccccc2)C(=O)c2ccccc21 limit_sign=> recorded_number=50
smiles_code=COc1cccc(SC2=C(N(c3ccccc3)c3ccccc3)C(=O)c3ccccc3C2=O)c1 limit_sign== recorded_number=50
smiles_code=NCC[C@H](O)C(=O)N[C@@H]1C[C@H](N)[C@@H](O[C@H]2O[C@H](CN)[C@@H](O)[C@H](O)[C@H]2O)[C@H](O)[C@H]1O[C@H]1O[C@H](CO)[C@@H](O)[C@H](N)[C@H]1O limit_sign== recorded_number=1
smiles_code=O=C1C(Cl)=C(NCCN2C(=O)c3ccccc3C2=O)C(=O)c2ccccc21 limit_sign== recorded_number=50
smiles_code=O=C1C(Cl)=C(Sc2cccc3ccccc23)C(=O)c2ccccc21 limit_sign=> recorded_number=50

The origin of these recorded values is ChEMBL document CHEMBL1153587.
